MEASUREMENT_TARGET: α1 receptor (Rattus norvegicus, UniProt Q9R0C9)
Construct: whole brain of a rat except for the cerebellum and medulla
Sequence (Q9R0C9 whole entry): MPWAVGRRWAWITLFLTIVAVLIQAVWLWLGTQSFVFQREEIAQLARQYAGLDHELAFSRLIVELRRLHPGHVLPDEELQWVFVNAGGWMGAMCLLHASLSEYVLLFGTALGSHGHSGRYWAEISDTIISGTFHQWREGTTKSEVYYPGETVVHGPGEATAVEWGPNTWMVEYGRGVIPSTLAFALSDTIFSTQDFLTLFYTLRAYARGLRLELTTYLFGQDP
ASSAY_PROTOCOL: radioreceptor assay (α1 [sic] receptor) with 3H-(+)pentazocine in rat whole brain homogenate (Pharmacological Test 1)
CONDITION_SUMMARY: 3H-(+)pentazocine 5 nM, rat whole brain except cerebellum and medulla, 2 hours
MEASURED_ENDPOINT: pKi
// pKi here means minus log10 of the molar concentration (mol/L)

Query: Any idea what pKi was measured for O=C1C(CN2CCCCC2)CCN1c1cccc(C(F)(F)F)c1 (stereo not drawn) [Example 20] ?
Response: 8.46

Query: # repeat for O=C1C(CN2CCCCC2)CCN1c1ccc(Cl)c(Cl)c1 (stereo not drawn) [Example 2]
Response: 8.55

Query: # repeat for CC1CCN(CC2(C)CCN(c3ccc(Cl)cc3)C2=O)CC1 (stereo not drawn) [Example 49]
Response: 8.52

Query: # repeat for O=C1C(CN2CCCCC2)CCN1c1cccc(Cl)c1 (stereo not drawn) [Example 12]
Response: 8.33

Query: # repeat for COc1cccc(N2CCC(CN3CCC(C)CC3)C2=O)c1 (stereo not drawn) [Example 43]
Response: 8.44

Query: # repeat for O=C1C(CN2CCCCCC2)CCN1c1ccc(Cl)cc1 (stereo not drawn) [Example 82]
Response: 8.70

Query: # repeat for CC1CCN(CC2CCN(c3ccc(C(C)(C)C)cc3)C2=O)CC1 (stereo not drawn) [Example 27]
Response: 8.64

Query: # repeat for COc1cccc(N2CCC(CN3CCCCCC3)C2=O)c1 (stereo not drawn) [Example 44]
Response: 8.23

Query: # repeat for COC1CCN(CC2CCN(c3ccc(Cl)cc3)C2=O)CC1 (stereo not drawn) [Example 75]
Response: 8.10

Query: # repeat for CCC1CCN(CC2CCN(c3ccc(Cl)cc3)C2=O)CC1 (stereo not drawn) [Example 29]
Response: 8.42

Query: # repeat for CC1CCN(CC2CCN(c3cccc(C(F)(F)F)c3)C2=O)CC1 (stereo not drawn) [Example 11]
Response: 8.68

Query: # repeat for O=C1C(CN2CCCCCC2)CCN1c1cccc(C(F)(F)F)c1 (stereo not drawn) [Example 3]
Response: 8.49

Query: # repeat for O=C1C(CN2CCCCCCC2)CCN1c1ccc(Cl)c(Cl)c1 (stereo not drawn) [Example 31]
Response: 8.92

Query: # repeat for CC1CCN(CC2CCN(c3ccc(Cl)c(Cl)c3)C2=O)CC1 (stereo not drawn) [Example 33]
Response: 8.15

Query: # repeat for O=C1C(CN2CCCCCC2)CCN1c1ccc(Cl)cc1 (stereo not drawn) [Example 1]
Response: 8.57

Query: # repeat for O=C1C(CN2CCCCC2)CCN1c1cccc(Br)c1 (stereo not drawn) [Example 13]
Response: 8.89

Query: # repeat for O=C1C(CN2CCCCC2)CCN1c1ccc(C(F)(F)F)cc1 (stereo not drawn) [Example 74]
Response: 8.36

Query: # repeat for O=C1C(CN2CCCCCC2)CCN1c1ccc(Cl)cc1 (single isomer, unassigned; (-)) [Example 93 (-) form]
Response: 8.82

Reference for the values: patent US5538985A
